Where do these numbers come from? They come from ChEMBL document CHEMBL3804763.

- System: MCF7
- test details: Antiproliferative activity against human MCF7 cells assessed as cell viability after 24 hrs by MTT assay
- Assay type: functional
- measurement context: MCF7, 24 h
The entries below are paired with their reported GI50.

{"compound": "CN(C)c1ccc(C2CC(c3ccc4c(c3)OCCO4)=NN2c2ccccc2)cc1 (stereo unspecified)", "comparison operator": "=", "GI50 [µM]": 12.1}
{"compound": "c1ccc(COc2cccc(C3CC(c4ccc5c(c4)OCCO5)=NN3c3ccccc3)c2)cc1 (stereo unspecified)", "comparison operator": "=", "GI50 [µM]": 14.8}
{"compound": "Clc1ccc(C2CC(c3ccc4c(c3)OCCO4)=NN2c2ccccc2)cc1Cl (stereo unspecified)", "comparison operator": "=", "GI50 [µM]": 38.3}
{"compound": "COc1cccc(C2CC(c3ccc4c(c3)OCCO4)=NN2c2ccccc2)c1 (stereo unspecified)", "comparison operator": ">", "GI50 [µM]": 100}
{"compound": "Clc1cccc(C2CC(c3ccc4c(c3)OCCO4)=NN2c2ccccc2)c1 (stereo unspecified)", "comparison operator": "=", "GI50 [µM]": 55.9}
{"compound": "c1ccc(COc2ccc(C3CC(c4ccc5c(c4)OCCO5)=NN3c3ccccc3)cc2)cc1 (stereo unspecified)", "comparison operator": "=", "GI50 [µM]": 23.6}

###

- measured target: Serine/threonine-protein kinase B-raf (Mus musculus, UniProt P28028)
- Sequence (P28028 whole entry): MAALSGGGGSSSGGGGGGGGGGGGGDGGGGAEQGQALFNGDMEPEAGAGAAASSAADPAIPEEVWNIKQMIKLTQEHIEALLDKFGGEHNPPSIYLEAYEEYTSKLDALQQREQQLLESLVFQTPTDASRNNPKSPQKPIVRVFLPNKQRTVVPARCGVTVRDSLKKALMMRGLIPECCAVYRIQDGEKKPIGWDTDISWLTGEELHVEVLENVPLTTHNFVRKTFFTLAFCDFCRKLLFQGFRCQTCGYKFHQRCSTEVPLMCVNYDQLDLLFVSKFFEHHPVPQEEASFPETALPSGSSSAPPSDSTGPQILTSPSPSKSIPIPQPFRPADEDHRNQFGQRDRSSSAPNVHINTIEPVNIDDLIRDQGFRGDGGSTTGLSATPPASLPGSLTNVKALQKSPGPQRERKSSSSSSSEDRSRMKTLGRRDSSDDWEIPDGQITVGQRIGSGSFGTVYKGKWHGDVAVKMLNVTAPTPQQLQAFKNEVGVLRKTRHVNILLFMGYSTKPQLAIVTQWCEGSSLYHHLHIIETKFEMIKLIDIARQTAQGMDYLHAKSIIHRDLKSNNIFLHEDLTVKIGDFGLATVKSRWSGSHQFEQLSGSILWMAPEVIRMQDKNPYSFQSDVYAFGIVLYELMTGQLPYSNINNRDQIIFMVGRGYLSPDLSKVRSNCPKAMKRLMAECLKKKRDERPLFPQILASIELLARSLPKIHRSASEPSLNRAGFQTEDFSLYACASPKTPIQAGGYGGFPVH

{"compound": "c1ccc(COc2ccc(C3CC(c4ccc5c(c4)OCCO5)=NN3c3ccccc3)cc2)cc1 (configuration not stated)", "IC50": "2510 nM"}
{"compound": "c1ccc(COc2cccc(C3CC(c4ccc5c(c4)OCCO5)=NN3c3ccccc3)c2)cc1 (configuration not stated)", "IC50": "1060 nM"}

###

- test details: Cytotoxicity against mouse NIH/3T3 cells after 24 hrs by MTT assay
- Format: cell-based, NIH3T3
metric: GI50 at 24 h (µM)

{"compound": "Clc1ccc(C2CC(c3ccc4c(c3)OCCO4)=NN2c2ccccc2)cc1Cl (stereo unspecified)", "reported result": 156}
{"compound": "COc1cccc(C2CC(c3ccc4c(c3)OCCO4)=NN2c2ccccc2)c1 (stereo unspecified)", "reported result": 285}
{"compound": "Clc1cccc(C2CC(c3ccc4c(c3)OCCO4)=NN2c2ccccc2)c1 (stereo unspecified)", "reported result": 172}
{"compound": "c1ccc(COc2ccc(C3CC(c4ccc5c(c4)OCCO5)=NN3c3ccccc3)cc2)cc1 (stereo unspecified)", "reported result": 228}
{"compound": "c1ccc(COc2cccc(C3CC(c4ccc5c(c4)OCCO5)=NN3c3ccccc3)c2)cc1 (stereo unspecified)", "reported result": 222}
{"compound": "CN(C)c1ccc(C2CC(c3ccc4c(c3)OCCO4)=NN2c2ccccc2)cc1 (stereo unspecified)", "reported result": 256}

###

- measured target: Epidermal growth factor receptor (Homo sapiens)
- Sequence (P00533 whole entry, the tested form may be a part): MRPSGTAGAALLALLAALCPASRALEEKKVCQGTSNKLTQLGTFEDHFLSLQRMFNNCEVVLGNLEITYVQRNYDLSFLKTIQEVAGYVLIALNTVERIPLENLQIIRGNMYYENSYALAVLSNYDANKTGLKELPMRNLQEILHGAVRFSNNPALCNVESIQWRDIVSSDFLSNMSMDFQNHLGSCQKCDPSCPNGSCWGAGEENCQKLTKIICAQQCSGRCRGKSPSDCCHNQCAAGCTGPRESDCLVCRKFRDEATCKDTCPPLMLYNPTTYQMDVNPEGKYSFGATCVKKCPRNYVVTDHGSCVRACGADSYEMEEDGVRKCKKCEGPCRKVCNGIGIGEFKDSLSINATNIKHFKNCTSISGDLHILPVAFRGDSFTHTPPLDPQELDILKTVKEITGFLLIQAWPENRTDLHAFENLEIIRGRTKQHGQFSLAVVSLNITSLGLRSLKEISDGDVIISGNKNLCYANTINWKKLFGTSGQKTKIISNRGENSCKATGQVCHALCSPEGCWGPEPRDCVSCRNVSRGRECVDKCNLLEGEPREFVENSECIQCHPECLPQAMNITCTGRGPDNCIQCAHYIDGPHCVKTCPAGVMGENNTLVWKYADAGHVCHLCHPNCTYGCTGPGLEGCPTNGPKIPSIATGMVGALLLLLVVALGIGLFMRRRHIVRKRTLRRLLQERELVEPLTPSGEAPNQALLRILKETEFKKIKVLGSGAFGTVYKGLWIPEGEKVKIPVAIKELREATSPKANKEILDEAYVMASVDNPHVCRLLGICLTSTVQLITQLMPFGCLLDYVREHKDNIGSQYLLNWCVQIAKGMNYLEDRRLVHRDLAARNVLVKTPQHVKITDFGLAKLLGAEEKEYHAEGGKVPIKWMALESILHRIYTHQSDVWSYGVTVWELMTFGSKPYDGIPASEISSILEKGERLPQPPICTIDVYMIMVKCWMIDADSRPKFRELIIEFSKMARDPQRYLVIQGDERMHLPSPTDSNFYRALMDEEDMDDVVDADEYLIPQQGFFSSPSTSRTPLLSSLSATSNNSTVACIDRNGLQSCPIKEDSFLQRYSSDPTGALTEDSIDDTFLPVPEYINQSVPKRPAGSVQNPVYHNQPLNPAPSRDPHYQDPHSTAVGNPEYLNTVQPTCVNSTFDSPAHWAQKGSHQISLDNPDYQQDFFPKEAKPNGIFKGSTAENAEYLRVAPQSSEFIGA
- test details: Inhibition of recombinant His6-tagged EGFR (unknown origin) cytoplasmic domain (645 to 1186 residues) autophosphorylation expressed in baculovirus infected Sf9 insect cells after 10 mins by DELFIA/time-resolved fluorometric analysis

{"compound": "c1ccc(COc2ccc(C3CC(c4ccc5c(c4)OCCO5)=NN3c3ccccc3)cc2)cc1 (stereo unspecified)", "IC50": "9.04 µM"}
{"compound": "Clc1ccc(C2CC(c3ccc4c(c3)OCCO4)=NN2c2ccccc2)cc1Cl (stereo unspecified)", "IC50": "192 µM"}
{"compound": "Clc1cccc(C2CC(c3ccc4c(c3)OCCO4)=NN2c2ccccc2)c1 (stereo unspecified)", "IC50": "81.2 µM"}
{"compound": "COc1cccc(C2CC(c3ccc4c(c3)OCCO4)=NN2c2ccccc2)c1 (stereo unspecified)", "IC50": "> 300 µM"}
{"compound": "CN(C)c1ccc(C2CC(c3ccc4c(c3)OCCO4)=NN2c2ccccc2)cc1 (stereo unspecified)", "IC50": "> 300 µM"}
{"compound": "c1ccc(COc2cccc(C3CC(c4ccc5c(c4)OCCO5)=NN3c3ccccc3)c2)cc1 (stereo unspecified)", "IC50": "7.92 µM"}
